target: Sushi domains (SD1/2) protein of the GABAB1a (GB1a) subunit, recombinant; test: FP competition
Sequence (Q9Z0U4 29-158): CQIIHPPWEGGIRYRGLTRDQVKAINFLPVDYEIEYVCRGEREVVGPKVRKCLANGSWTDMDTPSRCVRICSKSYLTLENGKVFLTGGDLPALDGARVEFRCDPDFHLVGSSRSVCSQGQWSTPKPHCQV
readout-label: Ki

Query: Ki; subject: Ac-PWAIVWGPTVSRED-NH2 [PIANPWT (Ac-…-NH2)] 476 nM
